FYI, the data here is from ChEMBL document CHEMBL3286129.

Assay: Growth inhibition of human UACC62 cells
Type: functional
Conditions: UACC-62
The entries below are paired with their reported TGI.

[
  {
    "TEST SMILES": "CC(C)C[C@H](NC(=O)CCn1ccc2ccccc2c1=O)B(O)O",
    "TGI, µM": 24.9
  },
  {
    "TEST SMILES": "CC(C)C[C@H](NC(=O)CCn1ccc2ncccc2c1=O)B(O)O",
    "TGI, µM": 48.8
  },
  {
    "TEST SMILES": "CC(C)C[C@H](NC(=O)CCn1ccc2ccc(Br)cc2c1=O)B(O)O",
    "TGI, µM": 2.44
  },
  {
    "TEST SMILES": "CC(C)C[C@H](NC(=O)Cn1ccc2ccc(Br)cc2c1=O)B(O)O",
    "TGI, µM": 10.4
  }
]

* * *

System: A498
Experiment: Growth inhibition of human A498 cells
Assay type: functional
Here, each record is paired with measured TGI data.

[
  {
    "TEST SMILES": "CC(C)C[C@H](NC(=O)CCn1ccc2ncccc2c1=O)B(O)O",
    "TGI": "24300 nM"
  },
  {
    "TEST SMILES": "CC(C)C[C@H](NC(=O)CCn1ccc2ccccc2c1=O)B(O)O",
    "TGI": "4790 nM"
  },
  {
    "TEST SMILES": "CC(C)C[C@H](NC(=O)Cn1ccc2ccc(Br)cc2c1=O)B(O)O",
    "TGI": "580 nM"
  },
  {
    "TEST SMILES": "CC(C)C[C@H](NC(=O)CCn1ccc2ccc(Br)cc2c1=O)B(O)O",
    "TGI": "740 nM"
  }
]

* * *

Tested on: HCT-116
Assay: Growth inhibition of human HCT116 cells
Assay type: functional
Below, each entry is listed with its recorded LC50.

[
  {
    "TEST SMILES": "CC(C)C[C@H](NC(=O)Cn1ccc2ccc(Br)cc2c1=O)B(O)O",
    "BOUND TYPE": "=",
    "LC50 (µM)": 95.8
  },
  {
    "TEST SMILES": "CC(C)C[C@H](NC(=O)CCn1ccc2ccc(Br)cc2c1=O)B(O)O",
    "BOUND TYPE": ">",
    "LC50 (µM)": 100
  },
  {
    "TEST SMILES": "CC(C)C[C@H](NC(=O)CCn1ccc2ccccc2c1=O)B(O)O",
    "BOUND TYPE": ">",
    "LC50 (µM)": 100
  },
  {
    "TEST SMILES": "CC(C)C[C@H](NC(=O)CCn1ccc2ncccc2c1=O)B(O)O",
    "BOUND TYPE": "=",
    "LC50 (µM)": 86.2
  }
]

* * *

Assay: Growth inhibition of human UACC257 cells
Type: functional
Conditions: UACC-257

[
  {
    "COMPOUND": "CC(C)C[C@H](NC(=O)CCn1ccc2ccc(Br)cc2c1=O)B(O)O",
    "UNIT OF MEASUREMENT": "nM",
    "GI50": 730
  },
  {
    "COMPOUND": "CC(C)C[C@H](NC(=O)CCn1ccc2ncccc2c1=O)B(O)O",
    "UNIT OF MEASUREMENT": "nM",
    "GI50": 10100
  },
  {
    "COMPOUND": "CC(C)C[C@H](NC(=O)[C@H](Cc1ccccc1)NC(=O)c1cnccn1)B(O)O [BORTEZOMIB]",
    "UNIT OF MEASUREMENT": "nM",
    "GI50": 0.59
  },
  {
    "COMPOUND": "CC(C)C[C@H](NC(=O)CCn1ccc2ccccc2c1=O)B(O)O",
    "UNIT OF MEASUREMENT": "nM",
    "GI50": 3680
  },
  {
    "COMPOUND": "CC(C)C[C@H](NC(=O)Cn1ccc2ccc(Br)cc2c1=O)B(O)O",
    "UNIT OF MEASUREMENT": "nM",
    "GI50": 940
  }
]

* * *

In this section, each of the compounds is paired with its reported GI50.
System: SK-MEL-5
Assay: Growth inhibition of human SK-MEL-5 cells
Format: functional

[
  {
    "TEST SMILES": "CC(C)C[C@H](NC(=O)CCn1ccc2ccc(Br)cc2c1=O)B(O)O",
    "MEASURED TARGET": "SK-MEL-5",
    "GI50 (µM)": 0.37
  },
  {
    "TEST SMILES": "CC(C)C[C@H](NC(=O)Cn1ccc2ccc(Br)cc2c1=O)B(O)O",
    "MEASURED TARGET": "SK-MEL-5",
    "GI50 (µM)": 0.8
  },
  {
    "TEST SMILES": "CC(C)C[C@H](NC(=O)CCn1ccc2ncccc2c1=O)B(O)O",
    "MEASURED TARGET": "SK-MEL-5",
    "GI50 (µM)": 4.03
  }
]

* * *

Experiment: Growth inhibition of human SF295 cells
Assay type: functional
Conditions: SF-295

[
  {
    "TEST SMILES": "CC(C)C[C@H](NC(=O)Cn1ccc2ccc(Br)cc2c1=O)B(O)O",
    "UNIT OF MEASUREMENT": "µM",
    "TGI": 15.9
  },
  {
    "TEST SMILES": "CC(C)C[C@H](NC(=O)CCn1ccc2ncccc2c1=O)B(O)O",
    "UNIT OF MEASUREMENT": "µM",
    "TGI": 36
  },
  {
    "TEST SMILES": "CC(C)C[C@H](NC(=O)CCn1ccc2ccc(Br)cc2c1=O)B(O)O",
    "UNIT OF MEASUREMENT": "µM",
    "TGI": 4.51
  }
]
